System: OVCAR-3 ovarian
experiment: NCI tumour cell line growth inhibition, 48 h
assay_endpoint: TGI
Answer with the figure and its unit, nothing else.

// known answers, use as guide
COc1ccc2[nH]cc(-c3cc4nc(-c5cn(C)c6ncc(Br)cc56)cc(N)n4n3)c2c1    3.49 µM
O=C1Nc2cc(Cl)ccc2/C1=C/c1cccc(OCc2ccccc2)c1    9.48 µM

stdin: Which TGI is reported for this compound? O=C(Nc1ccc(OCc2ccc(F)cc2)cc1)Nc1ccc(Cl)c(C(F)(F)F)c1
stdout: 10.6 µM

stdin: Which TGI is reported for this compound? C/C(=N/O)c1ccc(NC(=O)CSc2nnc(-c3ccc(-c4nc5ccc(Cl)cc5[nH]4)cc3)o2)cc1
stdout: 3.73 µM

###

System: MDA-MB-468 breast
experiment: NCI tumour cell line growth inhibition, 48 h
Recorded TGI determines the group label, using low class (below 3 µM), middle class (3 µM to below 6 µM), high class (6 µM or more)

O=C1NC(=N[C@@H](CO)c2ccccc2)S/C1=C\c1ccc2ncccc2c1    high class
FC(F)(F)Oc1cccc(-c2cc(NCCCCCCNc3cc(-c4cccc(OC(F)(F)F)c4)nc4ccc(N5CCCC5)cc34)c3cc(N4CCCC4)ccc3n2)c1    middle class
N#CC1c2ccccc2C=CN1C(=O)CCCl (centres undefined)    middle class
O=C(/C=C/C12c3ccccc3C(c3ccccc31)C1C(=O)NC(=O)C12)c1ccccn1 (centres undefined)    middle class

stdin: Could you place CN[C@@H](C)C(=O)N[C@H]1CN(S(=O)(=O)c2cccc(S(=O)(=O)N3CC[C@H]4CC[C@@H](C(=O)NC(c5ccccc5)c5ccccc5)N4C(=O)[C@@H](NC(=O)[C@H](C)NC)C3)c2)CC[C@H]2CC[C@@H](C(=O)NC(c3ccccc3)c3ccccc3)N2C1=O in its proper category? Many thanks.
stdout: low class

stdin: Could you place Nc1nc2c(c3cnccc13)C(c1ccc(Cl)c(Cl)c1)Cc1cnccc1-2 (centres undefined) in its proper category? Many thanks.
stdout: low class

stdin: Could you place COC(=O)OC1C(O[C@H]2C[C@H]3[C@@H]4CC=C5C[C@@H](O)CC[C@]5(C)[C@H]4CC[C@]3(C)[C@H]2[C@H](C)C(=O)CCC(C)C)OCC(O)C1OC1OCC(O)C(O)C1OC(=O)c1ccc(OC)cc1 (some centres undefined) in its proper category? Many thanks.
stdout: low class

stdin: Could you place Cc1ccc(O)cc1Nc1ccnc2ccc(S(C)(=O)=O)cc12 in its proper category? Many thanks.
stdout: high class

###

Listing of recorded GI50 by entry.
Test system: MALME-3M melanoma
experiment: NCI tumour cell line growth inhibition, 48 h

// known answers, use as guide
COc1ccc2[nH]cc(-c3cc4nc(-c5cn(C)c6ncc(Br)cc56)cc(N)n4n3)c2c1    1.68 µM
O=C1Nc2cc(Cl)ccc2/C1=C/c1cccc(OCc2ccccc2)c1    4.3 µM
O=C(Nc1ccc(OCc2ccc(F)cc2)cc1)Nc1ccc(Cl)c(C(F)(F)F)c1    2.07 µM

Next compound, GI50 to be filled in.
stdin: Request: GI50, test system MALME-3M melanoma, entry C=C1CCC2C3(C)COC(c4ccccc4)OC3CCC2(C)C1CC(Sc1ccccc1)C1=CCOC1=O (centres undefined)
stdout: 27.9 µM

###

Listing of recorded TGI by entry.
System: NCI-H460 lung
experiment: NCI tumour cell line growth inhibition, 48 h
Reply with just the number (in µM).

// known answers, use as guide
O=C1Nc2cc(Cl)ccc2/C1=C/c1cccc(OCc2ccccc2)c1    11.5
C/C(=N/O)c1ccc(NC(=O)CSc2nnc(-c3ccc(-c4nc5ccc(Cl)cc5[nH]4)cc3)o2)cc1    3.25

Next compound, TGI to be filled in.
stdin: Which TGI is reported for this compound? COc1ccc2[nH]cc(-c3cc4nc(-c5cn(C)c6ncc(Br)cc56)cc(N)n4n3)c2c1
stdout: 3.47

FYI, the data here is from PubChem BioAssay (NCI).
